target.system: 5-lipoxygenase (Rattus norvegicus)
test.method.notes: 5-LOX enzyme assay was carried out with some modifications of ferric oxidation of xylenol orange (FOX) assay, which is based on the complex formation of Fe3+/ xylenol orange with absorption at visible light.
condition.context: pH 7.4
pIC50: −log10 of the molar value.
experimental.endpoint: pIC50

Here's what some known entries look like.
> print(dat)
                    smiles.representation  experimental.endpoint  test.result
1      Oc1ccc(Nc2nc(-c3ccc(F)cc3F)cs2)cc1                  pIC50         7.07
2  Cc1cc(Nc2nc(-c3ccc(Cl)cc3)cs2)cc(C)c1O                  pIC50         6.90

(P) Oc1ccc(Nc2nc(-c3ccccc3F)cs2)cc1
(Q) Nc1ccc(Nc2nc(-c3ccc(Br)cc3)cs2)cc1
Kindly identify which of P and Q has the larger recorded pIC50 value. Answer = label. P
(P: 7.09, Q: 6.70)

###

target.system: 5-lipoxygenase (Rattus norvegicus)
test.method.notes: 5-LOX enzyme assay was carried out with some modifications of ferric oxidation of xylenol orange (FOX) assay, which is based on the complex formation of Fe3+/ xylenol orange with absorption at visible light.
condition.context: pH 7.4
pIC50: −log10 of the molar value.
experimental.endpoint: pIC50

Here's what some known entries look like.
> print(dat)
                      smiles.representation  experimental.endpoint  test.result
1  O=[N+]([O-])c1ccc(-c2csc(Nc3ccc(O)cc3)n2)cc1                  pIC50         7.60
2        Oc1ccc(Nc2nc(-c3ccc(Br)cc3)cs2)cc1                  pIC50         7.09
3  Oc1c(Cl)cc(Nc2nc(-c3ccc(Cl)cc3)cs2)cc1Cl                  pIC50         6.84
4     Cc1cc(Nc2nc(-c3ccc(F)cc3)cs2)c(C)cc1O                  pIC50         6.98
5  Nc1ccc(Nc2nc(-c3ccc([N+](=O)[O-])cc3)cs2)cc1                  pIC50         7.04

(P) Nc1ccccc1Nc1nc(-c2ccc(Cl)cc2)cs1
(Q) Oc1ccc(Nc2nc(-c3cc(Cl)ccc3Cl)cs2)cc1
Returns the identifier with the smallest measured pIC50 among P and Q . Answer = label. P
(P: 6.38, Q: 7.04)

###

target.system: 5-lipoxygenase (Rattus norvegicus)
test.method.notes: 5-LOX enzyme assay was carried out with some modifications of ferric oxidation of xylenol orange (FOX) assay, which is based on the complex formation of Fe3+/ xylenol orange with absorption at visible light.
condition.context: pH 7.4
experimental.endpoint: IC50 (nM)

(a) Nc1ccc(Nc2nc(-c3ccc(F)cc3F)cs2)cc1
(b) Nc1ccc(Nc2nc(-c3ccc(F)cc3)cs2)cc1
Kindly identify which of a and b has the larger recorded IC50 value. Answer = label. b

(a) Nc1ccc(Nc2nc(-c3cc(Cl)ccc3Cl)cs2)cc1
(b) Nc1ccc(Nc2nc(-c3ccccc3)cs2)cc1
Returns the identifier with the smallest measured IC50 among a and b . Answer = label. a
(a: 60 nM, b: 120 nM)

(a) Oc1ccc(Nc2nc(-c3cccc(F)c3)cs2)cc1
(b) Oc1c(Cl)cc(Nc2nc(-c3ccc(F)cc3)cs2)cc1Cl
Kindly identify which of a and b has the larger recorded IC50 value. Answer = label. b
